Recorded pKi values for a group of compounds are listed next.
- Target Entity: EP3 receptor (Homo sapiens)
- Construct: purchased Millipore HTS092M
- Sequence (P43115 1-390): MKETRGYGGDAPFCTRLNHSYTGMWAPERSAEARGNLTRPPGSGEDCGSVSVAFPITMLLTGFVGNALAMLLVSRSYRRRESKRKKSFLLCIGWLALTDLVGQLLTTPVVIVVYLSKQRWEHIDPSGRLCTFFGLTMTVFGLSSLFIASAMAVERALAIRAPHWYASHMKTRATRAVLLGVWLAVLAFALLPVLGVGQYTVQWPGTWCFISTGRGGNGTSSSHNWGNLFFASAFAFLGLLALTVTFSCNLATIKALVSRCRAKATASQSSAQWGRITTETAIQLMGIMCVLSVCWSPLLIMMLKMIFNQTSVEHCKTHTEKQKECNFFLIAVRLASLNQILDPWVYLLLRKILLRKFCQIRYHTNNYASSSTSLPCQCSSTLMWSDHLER
- Assay Name: [3H]-PGE2 binding assay (EP3 competition binding)
- Run Conditions: read-out: [3H]-PGE2 Binding Ki
pKi: −log10 of the molar value.

Recorded results for 2 compounds are shown here.
Compound: CCN1CCOc2c(F)cc(-c3ccc(C(/C=C4\CCNC4=O)(CC)CC)c(=O)[nH]3)cc21 [compound 25]
Target Entity: EP3 receptor (Homo sapiens)
Result: < 5.00

Compound: O=c1[nH]c(-c2ccc3ccccc3c2)ccc1C1CCNCC1 [compound 194]
Target Entity: EP3 receptor (Homo sapiens)
Result: < 5.00

pKi of CC(C)C(CC1OC(=O)NC1=O)c1ccc(-c2cc(Cl)c3c(c2)ncn3C)[nH]c1=O (stereo not drawn) [compound 107] , assay on EP3 receptor (Homo sapiens), is < 5.00
